- Tested on: hemoglobin-haptoglobin complex
- protocol-summary: Stability of hemoglobin (as hemoglobin-haptoglobin complex) in samples preserved at 37° C. in preservation solution containing 1 unit/L haptoglobin, Hb measured by latex agglutination method (Examples 1 to 7)
- Set-up: species or system human
- conditions: Feces 2; sugar 100 mmol/L + phenylboronic acid 15 mmol/L; 37° C., 14 days
property-label: Hb concentration
Please don't drop the unit; write it after the number.

[in] Recorded Hb concentration for OC[C@H]1O[C@H](O[C@H]2O[C@H](CO)[C@@H](O)[C@H](O)[C@H]2O)[C@H](O)[C@@H](O)[C@@H]1O [Trehalose, trehalose] , please?
[out] 227 µg/L

[in] Follow-up item: OC[C@H]1O[C@@](CO)(O[C@H]2O[C@H](CO)[C@@H](O)[C@H](O)[C@H]2O)[C@@H](O)[C@@H]1O [Sucrose, sucrose]
[out] 236 µg/L

[in] Follow-up item: OC[C@@H](O)[C@@H](O)[C@H](O)[C@H](O)CO [Mannitol, mannitol]
[out] 286 µg/L

[in] Follow-up item: O=C(CO)[C@@H](O)[C@H](O)[C@H](O)CO [Fructose, fructose]
[out] 235 µg/L

[in] Follow-up item: OC[C@@H](O)[C@@H](O)[C@H](O)[C@@H](O)CO [Sorbitol, sorbitol]
[out] 246 µg/L

---

- System: hemoglobin-haptoglobin complex
- protocol-summary: Stability of hemoglobin (as hemoglobin-haptoglobin complex) in samples preserved at 37° C. in preservation solution containing 1 unit/L haptoglobin, Hb measured by latex agglutination method (Examples 1 to 7)
- Design: species or system human
- conditions: Feces 2; arylboronic acid 15 mmol/L; 37° C., 0 days
property-label: Hb concentration (µg/L)
// note: answer is a bare numeric in µg/L

[in] Recorded Hb concentration for O=C(O)c1ccc(B(O)O)cc1 , please?
[out] 315

[in] Follow-up item: OB(O)c1cccc(O)c1 [3H-PBA, 3-hydroxyphenylboronic acid]
[out] 326

[in] Follow-up item: O=C(O)c1cccc(B(O)O)c1
[out] 309

[in] Follow-up item: O=C(O)c1ccccc1B(O)O
[out] 311

---

- Test system: hemoglobin-haptoglobin complex
- protocol-summary: Stability of hemoglobin (as hemoglobin-haptoglobin complex) in samples preserved at 37° C. in preservation solution containing 1 unit/L haptoglobin, Hb measured by latex agglutination method (Examples 1 to 7)
- Set-up: species or system human
- conditions: Feces 1; sugar 50 mmol/L + phenylboronic acid 15 mmol/L; 37° C., 7 days
- Procedure: Preservation solutions were prepared with the addition of 40 mmol/L HEPES (pH 6.8), 0.1% BSA, 0.1% NaN3, 1 unit/L haptoglobin, and 0 to 100 mmol/L phenylboronic acid. Samples obtained by adding hemoglobin-added fecal specimens to the preservation solutions so that the fecal concentration would be 0.5% were preserved at 37° C. for 0, 7, 14, and 21 days. […] The hemoglobin (Hb) concentrations (μg/L) in the preserved samples were measured by the latex agglutination method. […]
property-label: Hb concentration (µg/L)
// note: answer is a bare numeric in µg/L

[in] Recorded Hb concentration for OC[C@H]1O[C@H](O[C@H]2O[C@H](CO)[C@@H](O)[C@H](O)[C@H]2O)[C@H](O)[C@@H](O)[C@@H]1O [Trehalose, trehalose] , please?
[out] 261

[in] Follow-up item: OC[C@@H](O)[C@@H](O)[C@H](O)[C@H](O)CO [Mannitol, mannitol]
[out] 278

[in] Follow-up item: OC[C@@H](O)[C@@H](O)[C@H](O)[C@@H](O)CO [Sorbitol, sorbitol]
[out] 300

[in] Follow-up item: O=C(CO)[C@@H](O)[C@H](O)[C@H](O)CO [Fructose, fructose]
[out] 294

[in] Follow-up item: OC[C@H]1O[C@@](CO)(O[C@H]2O[C@H](CO)[C@@H](O)[C@H](O)[C@H]2O)[C@@H](O)[C@@H]1O [Sucrose, sucrose]
[out] 281

---

- System: hemoglobin-haptoglobin complex
- protocol-summary: Stability of hemoglobin (as hemoglobin-haptoglobin complex) in samples preserved at 37° C. in preservation solution containing 1 unit/L haptoglobin, Hb measured by latex agglutination method (Examples 1 to 7)
- Set-up: species or system human
- conditions: Feces 1; sugar 100 mmol/L, no phenylboronic acid; 37° C., 14 days
For each entry below, report its Recovery ratio with respect to Hb concentration after 0 days value.
// note: answer is a bare numeric in %

[in] Recorded Recovery ratio with respect to Hb concentration after 0 days for OC[C@H]1O[C@@](CO)(O[C@H]2O[C@H](CO)[C@@H](O)[C@H](O)[C@H]2O)[C@@H](O)[C@@H]1O [Sucrose, sucrose] , please?
[out] 27

[in] Follow-up item: O=C(CO)[C@@H](O)[C@H](O)[C@H](O)CO [Fructose, fructose]
[out] 30

[in] Follow-up item: OC[C@H]1O[C@H](O[C@H]2O[C@H](CO)[C@@H](O)[C@H](O)[C@H]2O)[C@H](O)[C@@H](O)[C@@H]1O [Trehalose, trehalose]
[out] 30

[in] Follow-up item: OC[C@@H](O)[C@@H](O)[C@H](O)[C@H](O)CO [Mannitol, mannitol]
[out] 47

[in] Follow-up item: OC[C@@H](O)[C@@H](O)[C@H](O)[C@@H](O)CO [Sorbitol, sorbitol]
[out] 36

---

- Tested on: hemoglobin-haptoglobin complex
- protocol-summary: Stability of hemoglobin (as hemoglobin-haptoglobin complex) in samples preserved at 37° C. in preservation solution containing 1 unit/L haptoglobin, Hb measured by latex agglutination method (Examples 1 to 7)
- Parameters: species or system human
- conditions: Feces 2; sugar 100 mmol/L + phenylboronic acid 15 mmol/L; 37° C., 7 days
For each entry below, report its Recovery ratio with respect to Hb concentration after 0 days value.
// note: answer is a bare numeric in %

[in] Recorded Recovery ratio with respect to Hb concentration after 0 days for OC[C@@H](O)[C@@H](O)[C@H](O)[C@@H](O)CO [Sorbitol, sorbitol] , please?
[out] 101

[in] Follow-up item: OC[C@H]1O[C@@](CO)(O[C@H]2O[C@H](CO)[C@@H](O)[C@H](O)[C@H]2O)[C@@H](O)[C@@H]1O [Sucrose, sucrose]
[out] 96

[in] Follow-up item: OC[C@H]1O[C@H](O[C@H]2O[C@H](CO)[C@@H](O)[C@H](O)[C@H]2O)[C@H](O)[C@@H](O)[C@@H]1O [Trehalose, trehalose]
[out] 93

[in] Follow-up item: O=C(CO)[C@@H](O)[C@H](O)[C@H](O)CO [Fructose, fructose]
[out] 94

[in] Follow-up item: OC[C@@H](O)[C@@H](O)[C@H](O)[C@H](O)CO [Mannitol, mannitol]
[out] 100

---

- tested-on: hemoglobin (Homo sapiens, UniProt P68871+P69905)
- Sequence (P69905 2-142): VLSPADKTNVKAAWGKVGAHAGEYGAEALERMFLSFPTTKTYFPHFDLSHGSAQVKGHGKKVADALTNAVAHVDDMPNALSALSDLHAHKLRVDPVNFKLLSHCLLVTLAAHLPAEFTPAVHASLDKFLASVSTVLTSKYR
- Sequence (P68871 2-147): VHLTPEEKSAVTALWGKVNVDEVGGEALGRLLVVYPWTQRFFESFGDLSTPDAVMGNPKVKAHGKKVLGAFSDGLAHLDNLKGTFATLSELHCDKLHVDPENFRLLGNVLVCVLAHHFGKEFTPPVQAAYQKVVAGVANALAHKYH
- protocol-summary: Stability of hemoglobin in samples preserved at 37° C. in preservation solution containing no haptoglobin, Hb measured by latex agglutination method (Examples 8, 9 and Table 10)
- conditions: Feces 2; 0 h at 37° C.; no phenylboronic acid, sugar 100 mmol/L
property-label: Hb concentration (µg/L)
// note: answer is a bare numeric in µg/L

[in] Kindly state the measured Hb concentration obtained for OC[C@@H](O)[C@@H](O)[C@H](O)[C@@H](O)CO with hemoglobin (Homo sapiens, UniProt P68871+P69905).
[out] 275

[in] Follow-up item: OC[C@H]1O[C@H](O[C@H]2O[C@H](CO)[C@@H](O)[C@H](O)[C@H]2O)[C@H](O)[C@@H](O)[C@@H]1O
[out] 254

[in] Follow-up item: OC[C@H]1O[C@@](CO)(O[C@H]2O[C@H](CO)[C@@H](O)[C@H](O)[C@H]2O)[C@@H](O)[C@@H]1O
[out] 255

[in] Follow-up item: O=C(CO)[C@@H](O)[C@H](O)[C@H](O)CO
[out] 268

[in] Follow-up item: OC[C@@H](O)[C@@H](O)[C@H](O)[C@H](O)CO
[out] 266

---

- Test system: hemoglobin-haptoglobin complex
- protocol-summary: Stability of hemoglobin (as hemoglobin-haptoglobin complex) in samples preserved at 37° C. in preservation solution containing 1 unit/L haptoglobin, Hb measured by latex agglutination method (Examples 1 to 7)
- Parameters: species or system human
- conditions: sugar 50 or 100 mmol/L further added to phenylboronic acid 15 mmol/L; Feces 1, Feces 2, Feces 3
property-label: recovery ratio of hemoglobin in the sample

structure-as-smiles	measurement
O=C(CO)[C@@H](O)[C@H](O)[C@H](O)CO	further improved
OC[C@H]1O[C@@](CO)(O[C@H]2O[C@H](CO)[C@@H](O)[C@H](O)[C@H]2O)[C@@H](O)[C@@H]1O	further improved
OC[C@@H](O)[C@@H](O)[C@H](O)[C@H](O)CO	remarkably improved
OC[C@@H](O)[C@@H](O)[C@H](O)[C@@H](O)CO	remarkably improved
